These measurements were taken from paper PMC12136037.

# System: ~100 representative kinases
# assay-text: DSF 100 kinase selectivity screen
# Assay type: binding
# reported-conditions: selectivity score: # >5K divided by # of proteins tested in the DSF panel
measured-attribute: S(5K)
Reply with the value as a number alone.

Cc1cc(NC(=O)C2(C(=O)Nc3cccc(-c4c[nH]c5ncnc(N6CCOCC6)c45)c3)CC2)ccc1F = 0.420
C[C@@H]1CN(c2cc(-c3n[nH]c4ccc(OC5(C)CC5)cc34)ncn2)C[C@H](C)O1 = 0.019
O=C(Nc1cccc(-c2c[nH]c3ncnc(N4CCOCC4)c23)c1)C1(C(=O)Nc2ccc(F)c(Br)c2F)CC1 = 0.144

Field: S(5K) (~100 representative kinases). Entry: O=C(Nc1cccc(-c2c[nH]c3ncnc(N4CCOCC4)c23)c1)C1(C(=O)Nc2ccc(F)c(F)c2)CC1 0.320

Queued: Cn1cc(-c2c[nH]c3ncnc(N4CCOCC4)c23)cc1C#N 0.118

* * *

Below: a set of entries, each annotated with reported dTm.
# experimental-target: ~100 representative kinases (Homo sapiens)
# Construct: Recombinant protein kinase domains with a concentration of 2 μM
# assay-text: DSF 100 kinase selectivity screen;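 as to dTm: compound tested at 20 µM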
# Type: binding
# reported-conditions: Protein EPHA2; average of three replicates
The answer is to be given in K; state only the numeric part.

Answered cases to consult:
Cc1ccc(C(=O)Nc2ccc(CN3CCN(C)CC3)c(C(F)(F)F)c2)cc1C#Cc1cnc2cccnn12 [Ponatinib, reference compound] = 16.48
C[C@@H]1CN(c2cc(-c3n[nH]c4ccc(OC5(C)CC5)cc34)ncn2)C[C@H](C)O1 = 0.27
CCSc1nc(NC)c2c(-c3cccc(NC(=O)Nc4cc(C(C)(C)C)nn4-c4ccc(C)cc4)c3)c[nH]c2n1 = 0.36

Quick one: dTm of CNC(=O)c1cc(Oc2ccc(NC(=O)Nc3cc(C(C)(C)C)nn3-c3ccc4ncccc4c3)c(F)c2)ccn1 [Rebastinib, reference compound] ? 10.76

* * *

Below: a set of entries, each annotated with reported log10(dTm).
# experimental-target: ~100 representative kinases (Homo sapiens, UniProt Q9UEW8)
# Construct: Recombinant protein kinase domains with a concentration of 2 μM
# assay-text: DSF 100 kinase selectivity screen;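 as to dTm: compound tested at 20 µM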
# Format: binding
# reported-conditions: Protein STK39; DSF; average of three replicates
Log10 applied to dTm; unit prior to transform: K.

Answered cases to consult:
O=C(Nc1cccc(-c2c[nH]c3ncnc(N4CCOCC4)c23)c1)C1(C(=O)Nc2ccc(F)c(F)c2)CC1 = 0.26
CNC(=O)c1cc(Oc2ccc(NC(=O)Nc3cc(C(C)(C)C)nn3-c3ccc4ncccc4c3)c(F)c2)ccn1 [Rebastinib, reference compound] = 0.05
CN[C@@H]1C[C@H]2O[C@@](C)([C@@H]1OC)n1c3ccccc3c3c4c(c5c6ccccc6n2c5c31)C(=O)NC4 = 0.95
C[C@@H]1CN(c2cc(-c3n[nH]c4ccc(OC5(C)CC5)cc34)ncn2)C[C@H](C)O1 = -0.57
O=C(Nc1cccc(-c2c[nH]c3ncnc(N4CCOCC4)c23)c1)C1(C(=O)Nc2ccc(F)cc2F)CC1 = 0.06

Quick one: log10(dTm) of O=C(Nc1cccc(-c2c[nH]c3ncnc(N4CCOCC4)c23)c1)C1(C(=O)Nc2cccc3c2CCC3)CC1 ? 0.02

Queued: Cc1ccc(C(=O)Nc2ccc(CN3CCN(C)CC3)c(C(F)(F)F)c2)cc1C#Cc1cnc2[nH]ncc2c1 [GZD-824, reference compound] 0.63

Queued: CCSc1nc(NC)c2c(-c3cccc(NC(=O)Nc4cc(C(C)(C)C)nn4-c4ccc(C)cc4)c3)c[nH]c2n1 -0.11
